# Tested on: HeLa Kyoto
# procedure_text: thermal stability score vs G1/S (z-score of summed log2 fold changes over temperatures); higher = more thermally stable than in G1/S
# condition_info: cell cycle stage: early G1 (4.5 h after nocodazole release)
measurement_kind: thermal stability score
Note: the reply should be a number with no unit written.

Notebook: MTDLVAVWDVALSDGVHKIEFEHGTTSGKRVVYVDGKEEIRKEWMFKLVGKETFYVGAAKTKATINIDAISGFAYEYTLEINGKSLKKYMEDRSKTTNTWVLHMDGENFRIVLEKDAMDVWCNGKKLETAGEFVDDGTETHFSIGNHDCYIKAVSSGKRKEGIIHTLIVDNREIPEIAS [FAIM] , thermal stability score read as 0.651

Recorded result, MNRSHRHGAGSGCLGTMEVKSKFGAEFRRFSLERSKPGKFEEFYGLLQHVHKIPNVDVLVGYADIHGDLLPINNDDNYHKAVSTANPLLRIFIQKKEEADYSAFGTDTLIKKKNVLTNVLRPDNHRKKPHIVISMPQDFRPVSSIIDVDILPETHRRVRLYKYGTEKPLGFYIRDGSSVRVTPHGLEKVPGIFISRLVPGGLAQSTGLLAVNDEVLEVNGIEVSGKSLDQVTDMMIANSRNLIITVRPANQRNNVVRNSRTSGSSGQSTDNSLLGYPQQIEPSFEPEDEDSEEDDIIIEDNGVPQQIPKAVPNTESLESLTQIELSFESGQNGFIPSNEVSLAAIASSSNTEFETHAPDQKLLEEDGTIITL [PARD6B] , thermal stability score: -0.366

Looking up MASGVQVADEVCRIFYDMKVRKCSTPEEIKKRKKAVIFCLSADKKCIIVEEGKEILVGDVGVTITDPFKHFVGMLPEKDCRYALYDASFETKESRKEELMFFLWAPELAPLKSKMIYASSKDAIKKKFQGIKHECQANGPEDLNRACIAEKLGGSLIVAFEGCPV [DSTN] , I see its thermal stability score listed as -0.977

###

# Test system: HeLa Kyoto
# procedure_text: solubility change mitosis vs G1/S (difference of NP-40 vs SDS log2 ratios) (log2 ratio difference); higher = more soluble in mitosis
For each of the sequences below, state its solubility change mitosis (log2).

Lab note: measured solubility change mitosis (log2) of MAAPPGEYFSVGSQVSCRTCQEQRLQGEVVAFDYQSKMLALKCPSSSGKPNHADILLINLQYVSEVEIINDRTETPPPLASLNVSKLASKARTEKEEKLSQAYAISAGVSLEGQQLFQTIHKTIKDCKWQEKNIVVMEEVVITPPYQVENCKGKEGSALSHVRKIVEKHFRDVESQKILQRSQAQQPQKEAALSS [LSM12] was 0.105

solubility change mitosis (log2) reported for this sequence MSRPLITRSPASPLNNQGIPTPAQLTKSNAPVHIDVGGHMYTSSLATLTKYPESRIGRLFDGTEPIVLDSLKQHYFIDRDGQMFRYILNFLRTSKLLIPDDFKDYTLLYEEAKYFQLQPMLLEMERWKQDRETGRFSRPCECLVVRVAPDLGERITLSGDKSLIEEVFPEIGDVMCNSVNAGWNHDSTHVIRFPLNGYCHLNSVQVLERLQQRGFEIVGSCGGGVDSSQFSEYVLRRELRRTPRVPSVIRIKQEPLD [KCTD1] : -0.267

###

# System: HeLa Kyoto
# procedure_text: thermal stability score vs G1/S (z-score of summed log2 fold changes over temperatures); higher = more thermally stable than in G1/S
# condition_info: cell cycle stage: early G1 (4.5 h after nocodazole release)
I'd be grateful if you could share measured thermal stability score for these entries.
Form: value (number only, do not type unit).

Reported thermal stability score of MNIRNARPEDLMNMQHCNLLCLPENYQMKYYFYHGLSWPQLSYIAEDENGKIVGYVLAKMEEDPDDVPHGHITSLAVKRSHRRLGLAQKLMDQASRAMIENFNAKYVSLHVRKSNRAALHLYSNTLNFQISEVEPKYYADGEDAYAMKRDLTQMADELRRHLELKEKGRHVVLGAIENKVESKGNSPPSSGEACREEKGLAAEDSGGDSKDLSEVSETTESTDVKDSSEASDSAS [NAA10] : -0.13

Lab note: measured thermal stability score of MLLKEYRICMPLTVDEYKIGQLYMISKHSHEQSDRGEGVEVVQNEPFEDPHHGNGQFTEKRVYLNSKLPSWARAVVPKIFYVTEKAWNYYPYTITEYTCSFLPKFSIHIETKYEDNKGSNDTIFDNEAKDVEREVCFIDIACDEIPERYYKESEDPKHFKSEKTGRGQLREGWRDSHQPIMCSYKLVTVKFEVWGLQTRVEQFVHKVVRDILLIGHRQAFAWVDEWYDMTMDEVREFERATQEATNKKIGIFPPAISISSIPLLPSSVRSAPSSAPSTPLSTDAPEFLSVPKDRPRKKSAPETLTLPDPEKKATLNLPGMHSSDKPCRPKSE [PITPNC1] was 0.0627

MAAALWGFFPVLLLLLLSGDVQSSEVPGAAAEGSGGSGVGIGDRFKIEGRAVVPGVKPQDWISAARVLVDGEEHVGFLKTDGSFVVHDIPSGSYVVEVVSPAYRFDPVRVDITSKGKMRARYVNYIKTSEVVRLPYPLQMKSSGPPSYFIKRESWGWTDFLMNPMVMMMVLPLLIFVLLPKVVNTSDPDMRREMEQSMNMLNSNHELPDVSEFMTRLFSSKSSGKSSSGSSKTGKSGAGKRR [EMC7] yielded thermal stability score of -1.44

Recorded thermal stability score (sequence MAAAVSSVVRRVEELGDLAQAHIQQLSEAAGEDDHFLIRASAALEKLKLLCGEEKECSNPSNLLELYTQAILDMTYFEENKLVDEDFPEDSSSQKVKELISFLSEPEILVKENNMHPKHCNLLGDELLECLSWRRGALLYMYCHSLTKRREWLLRKSSLLKKYLLDGISYLLQMLNYRCPIQLNEGVSFQDLDTAKLLSAGIFSDIHLLAMMYSGEMCYWGSKYCADQQPENHEVDTSVSGAGCTTYKEPLDFREVGEKILKKYVSVCEGPLKEQEWNTTNAKQILNFFHHRCN [C5ORF51] ): 0.411

Data point: MSDIGDWFRSIPAITRYWFAATVAVPLVGKLGLISPAYLFLWPEAFLYRFQIWRPITATFYFPVGPGTGFLYLVNLYFLYQYSTRLETGAFDGRPADYLFMLLFNWICIVITGLAMDMQLLMIPLIMSVLYVWAQLNRDMIVSFWFGTRFKACYLPWVILGFNYIIGGSVINELIGNLVGHLYFFLMFRYPMDLGGRNFLSTPQFLYRWLPSRRGGVSGFGVPPASMRRAADQNGGGGRHNWGQGFRLGDQ [DERL1] ; thermal stability score = -0.109

###

# Tested on: HeLa Kyoto
# procedure_text: solubility change mitosis vs G1/S (difference of NP-40 vs SDS log2 ratios) (log2 ratio difference); higher = more soluble in mitosis
Assignment: determine reported solubility change mitosis (log2) for the given sequences.
Could you keep your reply to the number by itself?

Looking up MGGKLSKKKKGYNVNDEKAKEKDKKAEGAATEEEGTPKESEPQAAAEPAEAKEGKEKPDQDAEGKAEEKEGEKDAAAAKEEAPKAEPEKTEGAAEAKAEPPKAPEQEQAAPGPAAGGEAPKAAEAAAAPAESAAPAAGEEPSKEEGEPKKTEAPAAPAAQETKSDGAPASDSKPGSSEAAPSSKETPAATEAPSSTPKAQGPAASAEEPKPVEAPAANSDQTVTVKE [BASP1] , I found its solubility change mitosis (log2) recorded as 0.98

Measured solubility change mitosis (log2) of MSFRKVNIIILVLAVALFLLVLHHNFLSLSSLLRNEVTDSGIVGPQPIDFVPNALRHAVDGRQEEIPVVIAASEDRLGGAIAAINSIQHNTRSNVIFYIVTLNNTADHLRSWLNSDSLKSIRYKIVNFDPKLLEGKVKEDPDQGESMKPLTFARFYLPILVPSAKKAIYMDDDVIVQGDILALYNTALKPGHAAAFSEDCDSASTKVVIRGAGNQYNYIGYLDYKKERIRKLSMKASTCSFNPGVFVANLTEWKRQNITNQLEKWMKLNVEEGLYSRTLAGSITTPPLLIVFYQQHSTIDPMWNVRHLGSSAGKRYSPQFVKAAKLLHWNGHLKPWGRTASYTDVWEKWYIPDPTGKFNLIRRYTEISNIK [GLT8D1] : 0.024

The measured solubility change mitosis (log2) associated with MDTLDRVVKPKTKRAKRFLEKREPKLNENIKNAMLIKGGNANATVTKVLKDVYALKKPYGVLYKKKNITRPFEDQTSLEFFSKKSDCSLFMFGSHNKKRPNNLVIGRMYDYHVLDMIELGIENFVSLKDIKNSKCPEGTKPMLIFAGDDFDVTEDYRRLKSLLIDFFRGPTVSNIRLAGLEYVLHFTALNGKIYFRSYKLLLKKSGCRTPRIELEEMGPSLDLVLRRTHLASDDLYKLSMKMPKALKPKKKKNISHDTFGTTYGRIHMQKQDLSKLQTRKMKGLKKRPAERITEDHEKKSKRIKKN [RPF2] reads 1.42

Form: sequence = MSEESDSLRTSPSVASLSENELPPPPEPPGYVCSLTEDLVTKAREELQEKPEWRLRDVQALRDMVRKEYPNLSTSLDDAFLLRFLRARKFDYDRALQLLVNYHSCRRSWPEVFNNLKPSALKDVLASGFLTVLPHTDPRGCHVVCIRPDRWIPSNYPITENIRAIYLTLEKLIQSEETQVNGIVILADYKGVSLSKASHFGPFIAKKVIGILQDGFPIRIKAVHVVNEPRIFKGIFAIIKPFLKEKIANRFFLHGSDLNSLHTNLPRSILPKEYGGTAGELDTATWNAVLLASEDDFVKEFCQPVPACDSILGQTLLPEGLTSDAQCDDSLRAVKSQLYSCY [TTPAL] ; solubility change mitosis (log2) = -0.0202

Input MAAARHSTLDFMLGAKADGETILKGLQSIFQEQGMAESVHTWQDHGYLATYTNKNGSFANLRIYPHGLVLLDLQSYDGDAQGKEEIDSILNKVEERMKELSQDSTGRVKRLPPIVRGGAIDRYWPTADGRLVEYDIDEVVYDEDSPYQNIKILHSKQFGNILILSGDVNLAESDLAYTRAIMGSGKEDYTGKDVLILGGGDGGILCEIVKLKPKMVTMVEIDQMVIDGCKKYMRKTCGDVLDNLKGDCYQVLIEDCIPVLKRYAKEGREFDYVINDLTAVPISTSPEEDSTWEFLRLILDLSMKVLKQDGKYFTQGNCVNLTEALSLYEEQLGRLYCPVEFSKEIVCVPSYLELWVFYTVWKKAKP [SMS] . Output solubility change mitosis (log2): -0.166
